Assay system: SOS1:KRAS (G12C) interaction (Homo sapiens (Human))
Assay remarks: SOS1-KRas(G12C) FRET Assay
Test parameters: 0.5 nM His10-SOS1 (res. 564-1049), 2.5 nM GST-KRAS (res. 1-169, G12C); read-out: SOS-KRas(G12C) FRET IC50
Measured parameter: IC50 (nM)
Your answer is read as nM, so omit the unit and give the number.

Past entries and their recorded results:
{"columns": ["Compound", "Observed value"],
 "data": [
  ["Cc1cnc(C(F)(F)c2cccc([C@@H](C)Nc3nn(C)c(=O)c4cc(=O)n(C5(C(F)F)CC5)cc34)c2F)cn1 [Example 176]", 20.1],
  ["C[C@@H](Nc1nn(C)c(=O)c2cc(=O)n(C3(C(F)F)CC3)cc12)c1cccc(C(F)F)c1F [Example 43]", 60.5],
  ["COc1c(=O)n(C2CC2)cc2c(N[C@H](C)c3cccc(C(F)(F)F)c3C)nn(C)c(=O)c12 [Example 6]", 161]
]}

Continue with the compound presented below.
Task: Suppose we examine the compound Cc1c([C@@H](C)Nc2nn(C)c(=O)c3c(N)c(=O)n(C4CC4)cc23)cccc1C(F)(F)F [Example 12] ; what IC50 value has been reported?
Result: 1330

----------
Assay system: SOS1:KRAS (G12C) interaction (Homo sapiens (Human))
Assay remarks: SOS1-KRas(G12C) FRET Assay
Test parameters: 0.5 nM His10-SOS1 (res. 564-1049), 2.5 nM GST-KRAS (res. 1-169, G12C); read-out: SOS-KRas(G12C) FRET IC50
Measured parameter: IC50 (nM)
Report as a plain number; the unit nM is understood.

{"columns": ["Test smiles", "Measured parameter", "Observed value"],
 "data": [
  ["C[C@@H](Nc1nn(C)c(=O)c2cc(=O)n(C3(C(F)F)CC3)cc12)c1cccc2c1OCC2(F)F", "IC50", 36.7]
]}

Task: So what's the measured IC50 for this one? CC(=O)N1CC(C)(n2cc3c(N[C@H](C)c4cccc(C(F)F)c4F)nn(C)c(=O)c3cc2=O)C1
Result: 34.3

Task: # get_value(readout='IC50', item= Cc1c([C@@H](C)Nc2nn(C)c(=O)c3c(OC(C)C)c(=O)n(C4CC4)cc23)cccc1C(F)(F)F )
Result: 376

Task: # lookup: IC50 of C[C@@H](Nc1nn(C)c(=O)c2c(Br)c(=O)n(C3(C(F)F)CC3)cc12)c1cccc(C(F)F)c1F
Result: 68.3

----------
Consider the following compounds and their measured pIC50 readings.
Assay system: SOS1:KRAS (G12C) interaction (Homo sapiens (Human), UniProt Q07889)
Sequence (Q07889 564-1049, stated change not applied): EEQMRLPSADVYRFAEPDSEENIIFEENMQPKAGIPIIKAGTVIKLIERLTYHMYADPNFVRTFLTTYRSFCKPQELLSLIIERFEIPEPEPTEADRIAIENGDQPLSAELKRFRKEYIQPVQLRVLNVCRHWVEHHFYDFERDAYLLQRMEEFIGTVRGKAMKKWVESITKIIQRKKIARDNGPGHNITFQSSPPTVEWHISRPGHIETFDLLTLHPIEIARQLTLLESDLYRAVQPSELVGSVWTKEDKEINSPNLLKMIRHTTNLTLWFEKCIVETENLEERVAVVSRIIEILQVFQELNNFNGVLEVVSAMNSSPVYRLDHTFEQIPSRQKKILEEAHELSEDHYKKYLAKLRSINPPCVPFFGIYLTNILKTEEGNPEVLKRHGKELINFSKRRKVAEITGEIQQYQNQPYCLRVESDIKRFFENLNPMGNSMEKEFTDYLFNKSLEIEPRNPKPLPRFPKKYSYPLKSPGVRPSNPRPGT
Assay remarks: SOS1-KRas(G12C) FRET Assay
Test parameters: 0.5 nM His10-SOS1 (res. 564-1049), 2.5 nM GST-KRAS (res. 1-169, G12C); read-out: SOS-KRas(G12C) FRET IC50
Bear in mind: pIC50 is minus log10 of a mol/L concentration; give just that figure.

{"columns": ["Compound", "pIC50"],
 "data": [
  ["C[C@@H](Nc1nn(C)c(=O)c2cc(=O)n([C@@H]3CCC(F)(F)C3)cc12)c1cccc(C(F)F)c1F (single isomer, unassigned) [Example 122]", 6.50],
  ["COc1c(=O)n(C2CCCCC2)cc2c(N[C@H](C)c3cccc(C(F)F)c3F)nn(C)c(=O)c12 [Example 49]", 7.29],
  ["COc1c(=O)n([C@@H]2CCOC[C@H]2F)cc2c(N[C@H](C)c3cccc(C(F)F)c3F)nn(C)c(=O)c12 (single isomer, unassigned) [Example 61]", 7.59],
  ["C[C@@H](Nc1nn(C)c(=O)c2cc(=O)n(C34CC(N5CCOCC5)(C3)C4)cc12)c1cccc(C(F)F)c1F [Example 50]", 7.26]
]}

Now for the compound whose pIC50 we want.
Task: Any idea what pIC50 came out for COc1c(=O)n([C@H]2CCOC[C@@H]2F)cc2c(N[C@H](C)c3cccc(C(F)F)c3F)nn(C)c(=O)c12 (single isomer, unassigned) [Example 60] on SOS1:KRAS (G12C) interaction (Homo sapiens (Human), UniProt Q07889)?
Result: 6.89

----------
The reader will find Kd measurements below, all made with human SOS1 (Homo sapiens (Human), UniProt Q07889).
Sequence (Q07889 564-1049): as the sequence (Q07889 564-1049, stated change not applied) above
Report the figure in nM without appending any unit label.

Solved entries (count: 8):
{"columns": ["Compound", "Assay system", "Unit of measure", "Observed value"],
 "data": [
  ["Cc1c([C@@H](C)Nc2nn(C)c(=O)c3c(OCC4CC4)c(=O)n(C4CC4)cc23)cccc1C(F)(F)F", "human SOS1 (Homo sapiens (Human), UniProt Q07889)", "nM", 51],
  ["Cc1c([C@@H](C)Nc2nn(C)c(=O)c3c(N(C)C)c(=O)n(C4CC4)cc23)cccc1C(F)(F)F", "human SOS1 (Homo sapiens (Human), UniProt Q07889)", "nM", 303],
  ["C[C@@H](Nc1nn(C)c(=O)c2cc(=O)n(C3CCOCC3)cc12)c1cccc2c1OCC2(F)F", "human SOS1 (Homo sapiens (Human), UniProt Q07889)", "nM", 6],
  ["C[C@H](Nc1nn(C)c(=O)c2cc(=O)n([C@H]3C[C@@H](C#N)C3)cc12)c1cccc(C(F)F)c1F", "human SOS1 (Homo sapiens (Human), UniProt Q07889)", "nM", 73],
  ["COc1c(=O)n([C@H]2CCOC[C@H]2F)cc2c(N[C@H](C)c3cccc(C(F)F)c3F)nn(C)c(=O)c12 (single isomer, unassigned)", "human SOS1 (Homo sapiens (Human), UniProt Q07889)", "nM", 441],
  ["Cc1c([C@@H](C)Nc2nn(C)c(=O)c3c(N4CC[C@H](N)C4)c(=O)n(C4CC4)cc23)cccc1C(F)(F)F", "human SOS1 (Homo sapiens (Human), UniProt Q07889)", "nM", 70],
  ["CC(=O)N1CCC(n2cc3c(N[C@H](C)c4cccc(C(F)(F)F)c4C)nn(C)c(=O)c3cc2=O)CC1", "human SOS1 (Homo sapiens (Human), UniProt Q07889)", "nM", 64],
  ["COc1c(=O)n([C@H]2CCOC[C@@H]2F)cc2c(N[C@H](C)c3cccc(C(F)F)c3F)nn(C)c(=O)c12 (single isomer, unassigned)", "human SOS1 (Homo sapiens (Human), UniProt Q07889)", "nM", 43]
]}

Task: Could you share what Kd was measured for C[C@@H](Nc1nn(C)c(=O)c2cc(=O)n([C@@H]3CCOC[C@@H]3F)cc12)c1cccc(C(F)F)c1F (single isomer, unassigned) , tested on human SOS1 (Homo sapiens (Human), UniProt Q07889)?
Result: 229

Task: // map C[C@@H](Nc1nn(C)c(=O)c2cc(=O)n(C3CC3)cc12)c1cccc2sccc12 to recorded Kd (system: human SOS1 (Homo sapiens (Human), UniProt Q07889))
Result: 31

Task: Query the reported Kd for human SOS1 (Homo sapiens (Human), UniProt Q07889); item: C[C@@H](Nc1nn(C)c(=O)c2cc(=O)n(C3CC3)cc12)c1cccc(C(F)(F)C(C)(C)O)c1F
Result: 34

Task: Record C[C@@H](Nc1nn(C)c(=O)c2cc(=O)n(C3CC3)cc12)c1ccc2c(C#N)nn(C)c2c1 (single isomer, unassigned) : what is its Kd with human SOS1 (Homo sapiens (Human), UniProt Q07889)?
Result: 225

Task: Find Kd (human SOS1 (Homo sapiens (Human), UniProt Q07889)) for the entry C[C@@H](Nc1nn(C)c(=O)c2cc(=O)n(C3(C(F)F)CC3)cc12)c1cccc(C(F)(F)C(C)(C)O)c1F
Result: 12

Task: Checklist item: Kd tested on human SOS1 (Homo sapiens (Human), UniProt Q07889), entry CCOc1c(=O)n(C2CC2)cc2c(N[C@H](C)c3cccc(C(F)(F)F)c3C)nn(C)c(=O)c12 , value?
Result: 161

Task: Kindly state the measured Kd obtained for Cc1c([C@@H](C)Nc2nn(CCO)c(=O)c3cc(=O)n(C4CC4)cc23)cccc1C(F)(F)F with human SOS1 (Homo sapiens (Human), UniProt Q07889).
Result: 61

Task: Item Cc1c([C@@H](C)Nc2nn(C)c(=O)c3cc(=O)n([C@H]4C[C@@H](O)C4)cc23)cccc1C(F)(F)F with human SOS1 (Homo sapiens (Human), UniProt Q07889) - Kd?
Result: 87

Task: Recorded Kd for Cc1c([C@@H](C)Nc2nn(C)c(=O)c3cc(=O)n(C4CCOCC4)cc23)cccc1C(F)(F)F with human SOS1 (Homo sapiens (Human), UniProt Q07889), please?
Result: 22

Task: Reported Kd for human SOS1 (Homo sapiens (Human), UniProt Q07889), given Cc1c([C@@H](C)Nc2nn(CCN3CC(C)(F)C3)c(=O)c3cc(=O)n(C4CC4)cc23)cccc1C(F)(F)F ?
Result: 124

Task: Checklist item: Kd tested on human SOS1 (Homo sapiens (Human), UniProt Q07889), entry Cc1cc([C@@H](C)Nc2nn(C)c(=O)c3cc(=O)n(C4CC4)cc23)cc2c1c(C#N)nn2C (single isomer, unassigned) , value?
Result: 134

Task: Form entry - test system: human SOS1 (Homo sapiens (Human), UniProt Q07889); read-out: Kd; compound: C[C@@H](Nc1nn(C)c(=O)c2cc(=O)n(C3(C(F)(F)F)CC3)cc12)c1cccc(C(F)F)c1F
Result: 31

Task: Recall the recorded Kd for C[C@@H](Nc1nn(C)c(=O)c2cc(=O)n([C@H]3CCCOC3)cc12)c1cccc(C(F)F)c1F (single isomer, unassigned) with human SOS1 (Homo sapiens (Human), UniProt Q07889) and state it.
Result: 43
